Sourced from patent US20040039053A1

# experimentalSystem: CYP2D6 (Homo sapiens)
# Sequence (P10635 whole entry): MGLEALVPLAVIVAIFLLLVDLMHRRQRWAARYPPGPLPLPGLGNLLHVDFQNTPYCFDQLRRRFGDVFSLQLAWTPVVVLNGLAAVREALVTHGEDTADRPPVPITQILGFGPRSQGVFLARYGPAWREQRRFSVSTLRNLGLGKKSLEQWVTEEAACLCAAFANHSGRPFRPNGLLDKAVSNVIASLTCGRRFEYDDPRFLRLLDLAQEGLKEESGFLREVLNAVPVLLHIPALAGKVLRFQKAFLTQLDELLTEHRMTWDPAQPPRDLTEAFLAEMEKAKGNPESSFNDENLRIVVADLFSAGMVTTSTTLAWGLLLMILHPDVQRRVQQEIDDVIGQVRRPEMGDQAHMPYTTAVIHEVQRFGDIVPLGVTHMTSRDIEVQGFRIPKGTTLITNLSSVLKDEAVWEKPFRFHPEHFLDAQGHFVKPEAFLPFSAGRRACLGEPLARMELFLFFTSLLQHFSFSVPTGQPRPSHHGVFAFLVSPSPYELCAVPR
# assayName: in vitro
# testParameters: both, microsomes
assayMetric: inhibition at 15 min, 33.3 µM (%)
Quick reminder: number only, in %, skip the unit.

What does the data say about its inhibition at 15 min, 33.3 µM? Entry: O=C(O)C(Oc1cccc(C(F)(F)F)c1)c1ccc(Cl)cc1 (single isomer, unassigned; (-)) [(−) halofenic acid] 5

* * *

# experimentalSystem: CYP2C19 (Homo sapiens)
# Sequence (P33261 whole entry, canonical isoform): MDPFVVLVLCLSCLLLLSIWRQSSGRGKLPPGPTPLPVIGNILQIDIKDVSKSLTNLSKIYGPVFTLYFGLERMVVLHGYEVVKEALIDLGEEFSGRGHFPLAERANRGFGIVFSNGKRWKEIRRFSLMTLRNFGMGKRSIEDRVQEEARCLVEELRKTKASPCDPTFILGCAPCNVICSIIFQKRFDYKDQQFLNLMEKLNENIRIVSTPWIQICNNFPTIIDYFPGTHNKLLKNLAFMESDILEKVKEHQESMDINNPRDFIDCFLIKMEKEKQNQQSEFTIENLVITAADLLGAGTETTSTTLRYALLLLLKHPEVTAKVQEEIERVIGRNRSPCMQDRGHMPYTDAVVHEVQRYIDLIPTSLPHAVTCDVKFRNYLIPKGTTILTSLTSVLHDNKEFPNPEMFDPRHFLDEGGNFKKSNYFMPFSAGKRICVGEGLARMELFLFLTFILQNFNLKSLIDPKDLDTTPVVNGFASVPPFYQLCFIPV
# assayName: Cytochrome P450 isoform inhibition in human hepatic microsomes, S-mephenytoin (Example 18)
# Type: in vitro ADME
# testParameters: both sexes, human, pooled human hepatic microsomes, probe S-mephenytoin 50 μM; test article 33.3 μM
assayMetric: inhibition at 30 min, 33.3 μM (%)
Provide only the numeric value, understood in %.

For the compound O=C(O)C(Oc1cccc(C(F)(F)F)c1)c1ccc(Cl)cc1 (single isomer, unassigned; (-)) [(−) halofenic acid] , what inhibition at 30 min, 33.3 μM is on record? 43

* * *

# experimentalSystem: UniProt:P05181
# Sequence (P05181 whole entry): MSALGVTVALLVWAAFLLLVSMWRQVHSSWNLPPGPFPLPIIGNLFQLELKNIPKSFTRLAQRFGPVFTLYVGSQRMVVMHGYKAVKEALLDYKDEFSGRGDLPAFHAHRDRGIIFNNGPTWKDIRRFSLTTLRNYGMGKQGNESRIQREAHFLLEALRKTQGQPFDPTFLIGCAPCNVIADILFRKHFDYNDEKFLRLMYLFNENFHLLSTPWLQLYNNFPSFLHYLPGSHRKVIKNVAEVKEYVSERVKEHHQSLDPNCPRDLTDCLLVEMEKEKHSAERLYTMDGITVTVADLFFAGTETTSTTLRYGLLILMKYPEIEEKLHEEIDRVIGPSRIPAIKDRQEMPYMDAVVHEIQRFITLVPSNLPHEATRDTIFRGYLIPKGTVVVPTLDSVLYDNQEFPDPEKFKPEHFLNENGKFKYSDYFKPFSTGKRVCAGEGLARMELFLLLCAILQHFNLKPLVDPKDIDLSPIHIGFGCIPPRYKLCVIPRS
# assayName: in vitro
# testParameters: both, microsomes
assayMetric: inhibition at 20 min, 0.33 μM (%)
A number alone suffices; assume %.

Could you share what inhibition at 20 min, 0.33 μM was measured for O=C(O)C(Oc1cccc(C(F)(F)F)c1)c1ccc(Cl)cc1 (single isomer, unassigned; (-)) [(−) halofenic acid] , tested on UniProt:P05181? 3

* * *

# experimentalSystem: UniProt:P05177
# Sequence (P05177 1-516): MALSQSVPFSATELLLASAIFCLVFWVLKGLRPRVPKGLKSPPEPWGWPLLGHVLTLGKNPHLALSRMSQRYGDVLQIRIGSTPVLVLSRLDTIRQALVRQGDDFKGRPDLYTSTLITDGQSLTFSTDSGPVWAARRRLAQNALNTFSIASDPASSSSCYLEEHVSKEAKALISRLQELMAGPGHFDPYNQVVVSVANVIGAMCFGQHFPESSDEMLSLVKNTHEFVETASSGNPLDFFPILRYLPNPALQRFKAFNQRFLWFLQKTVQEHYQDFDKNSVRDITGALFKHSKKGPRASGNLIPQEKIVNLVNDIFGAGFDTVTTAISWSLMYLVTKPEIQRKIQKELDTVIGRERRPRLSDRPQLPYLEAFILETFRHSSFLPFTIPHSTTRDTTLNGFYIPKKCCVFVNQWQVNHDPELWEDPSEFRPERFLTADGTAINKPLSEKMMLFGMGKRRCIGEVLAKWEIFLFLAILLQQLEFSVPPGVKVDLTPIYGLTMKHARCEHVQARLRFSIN
# assayName: in vitro
# testParameters: both, microsomes
assayMetric: inhibition at 30 min, 1 μM (%)
Answer in %, number only, no unit symbol.

I'd like to know its inhibition at 30 min, 1 μM. The molecule in question is O=C(O)C(Oc1cccc(C(F)(F)F)c1)c1ccc(Cl)cc1 (single isomer, unassigned; (-)) [(−) halofenic acid] 0

* * *

# experimentalSystem: UniProt P11509
# assayName: in vitro
# testParameters: both, microsomes
assayMetric: inhibition at 20 min, 1 μM
Number first, unit second: that is the form wanted.

Bench note: what inhibition at 20 min, 1 μM did O=C(O)C(Oc1cccc(C(F)(F)F)c1)c1ccc(Cl)cc1 (single isomer, unassigned; (-)) [(−) halofenic acid] show? -2%

* * *

# experimentalSystem: CYP2A6 (Homo sapiens, UniProt P11509)
# Sequence (P11509 whole entry): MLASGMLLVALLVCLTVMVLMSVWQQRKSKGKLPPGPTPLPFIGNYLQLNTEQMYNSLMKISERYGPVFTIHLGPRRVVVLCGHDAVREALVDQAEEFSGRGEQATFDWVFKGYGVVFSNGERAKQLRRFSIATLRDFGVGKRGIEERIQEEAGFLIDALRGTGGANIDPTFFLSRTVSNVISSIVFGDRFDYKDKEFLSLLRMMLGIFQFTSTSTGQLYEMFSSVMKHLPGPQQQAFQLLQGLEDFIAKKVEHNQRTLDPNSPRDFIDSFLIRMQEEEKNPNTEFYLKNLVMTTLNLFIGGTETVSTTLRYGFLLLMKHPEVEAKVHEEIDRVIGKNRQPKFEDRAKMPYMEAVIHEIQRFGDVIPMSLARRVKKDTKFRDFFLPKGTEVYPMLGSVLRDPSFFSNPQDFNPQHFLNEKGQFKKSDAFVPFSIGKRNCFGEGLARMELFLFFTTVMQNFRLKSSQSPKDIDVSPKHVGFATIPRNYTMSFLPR
# assayName: in vitro
# testParameters: both, microsomes
assayMetric: inhibition at 20 min, 3.3 μM (%)
Report the value in % with no unit label.

Request the reported inhibition at 20 min, 3.3 μM associated with O=C(O)C(Oc1cccc(C(F)(F)F)c1)c1ccc(Cl)cc1 (single isomer, unassigned; (-)) [(−) halofenic acid] 0
